ASSAY SYSTEM: T1, BMP-9 (UniProt Q9UK05 320-429)
T1 construct: also called bone morphogenetic protein 9
T1 sequence (looked up): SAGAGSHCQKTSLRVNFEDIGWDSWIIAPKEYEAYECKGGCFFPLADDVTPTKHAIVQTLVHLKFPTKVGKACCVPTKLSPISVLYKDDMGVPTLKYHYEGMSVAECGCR
EXPERIMENT: SPR (Biacore 8K), Fc protein captured on anti-human IgG, ligand injected
Protocol: The Cytiva Biacore 8k was used to measure the kinetics of the interactions between the ActRII- and chimera-Fc proteins and Activin A/Activin B/growth differentiation factor 8 (GDF-8)/GDF-11/BMP-9/BMP-10. Series S CM4 Sensor Chips were immobilized with anti-human capture antibody using the reagents and protocol in the Biacore Human Antibody Capture Kit (GE Life Sciences). […] The data were analyzed using the Biacore Insight Evaluation Software.
ATTRIBUTE MEASURED: pKd
FYI, pKd means -log10 of a concentration in mol per litre.

Past entries and their recorded results:
ActRIIB-B5 (SEQ ID NO: 114) chimera-Fc protein (Fc fusion, Tested as chimera-Fc protein; not shown: linker (if any) and Fc domain) GRGEAETRECIYYNANWELERTNQSGLERCEGEQDKRLHCYASWRNSSGTIELVKKGCWLDDFNCYDRQECVEKEENPQVYFCCCEGNFCNERFTHLPEAGGPEVTYEPPPTAPT
10.20
ActRIIA-A1 (SEQ ID NO: 104) chimera-Fc protein (Fc fusion, Tested as chimera-Fc protein; not shown: linker (if any) and Fc domain) GRGEAETRECLFFNANWEKDRTNQTGVEPCYGDKDKRRHCFATWKNISGSIEIVKQGCWLDDINCYDRTDCVEKKDSPEVYFCCCEGNMCNEKFSYFPEMEVTQPTS
7.21
ActRIIB-B1B4 (SEQ ID NO: 117) chimera-Fc protein (Fc fusion, Tested as chimera-Fc protein; not shown: linker (if any) and Fc domain) GRGEAETRECLFFNANWELERTNQSGLERCEGEQDKRLHCYASWRNSSGSIEIVKQGCWLDDFNCYDRQECVATEENPQVYFCCCEGNFCNERFTHLPEAGGPEVTYEPPPTAPT
10.40
ActRIIB-B2 (SEQ ID NO: 111) chimera-Fc protein (Fc fusion, Tested as chimera-Fc protein; not shown: linker (if any) and Fc domain) GRGEAETRECIYYNANWELERTNQTGVEPCEGEQDKRLHCYASWRNSSGTIELVKKGCWLDDFNCYDRQECVATEENPQVYFCCCEGNFCNERFTHLPEAGGPEVTYEPPPTAPT
11.49
ActRIIB-A3 (SEQ ID NO: 122) chimera-Fc protein (Fc fusion, Tested as chimera-Fc protein; not shown: linker (if any) and Fc domain) GRGEAETRECIYYNANWELERTNQSGLERCYGDKDKRLHCYASWRNSSGTIELVKKGCWLDDFNCYDRQECVATEENPQVYFCCCEGNFCNERFTHLPEAGGPEVTYEPPPTAPT
10.91
ActRIIB-B3 (SEQ ID NO: 112) chimera-Fc protein (Fc fusion, Tested as chimera-Fc protein; not shown: linker (if any) and Fc domain) GRGEAETRECIYYNANWELERTNQSGLERCEGEQDKRRHCFATWKNISGTIELVKKGCWLDDFNCYDRQECVATEENPQVYFCCCEGNFCNERFTHLPEAGGPEVTYEPPPTAPT
9.44
ActRIIB-B1B2B3B4 (SEQ ID NO: 119) chimera-Fc protein (Fc fusion, Tested as chimera-Fc protein; not shown: linker (if any) and Fc domain) GRGEAETRECLFFNANWELERTNQTGVEPCEGEQDKRRHCFATWKNISGSIEIVKQGCWLDDFNCYDRQECVATEENPQVYFCCCEGNFCNERFTHLPEAGGPEVTYEPPPTAPT
8.97

Next item in the queue.
# lookup: pKd of ActRIIA-B4 (SEQ ID NO: 98) chimera-Fc protein (Fc fusion, Tested as chimera-Fc protein; not shown: linker (if any) and Fc domain) GAILGRSETQECLFFNANWEKDRTNQTGVEPCYGDKDKRRHCFATWKNISGTIELVKKGCWLDDINCYDRTDCVEKKDSPEVYFCCCEGNMCNEKFSYFPEMEVTQPTS 7.87
